The reader will find reported melting point values listed item by item below.

>  <Molecule>
CC(=O)NCC1CN(c2ccc(N3CCC(O)(C#N)C(C)(C)C3)c(F)c2)C(=O)O1 (stereo unspecified)

>  <Readout label>
melting point

>  <Reported measurement>
65 to 68 °C

$$$$
>  <Molecule>
CC(=O)SCC(Cc1ccccc1)C(=O)Nc1cc(C(=O)O)ccc1C (stereo unspecified)

>  <Readout label>
melting point

>  <Reported measurement>
214 to 216 °C

$$$$
>  <Molecule>
Nc1cccc(F)c1C(=O)NCC(=O)O

>  <Readout label>
melting point

>  <Reported measurement>
188 to 192 °C

$$$$
>  <Molecule>
O=S(=O)(NCc1ccccc1)c1ccc(N(OCC2CCCCC2)c2ncc3[nH]cnc3n2)cc1

>  <Readout label>
melting point

>  <Reported measurement>
222 to 224 °C

$$$$

The value of melting point measured for the molecule `O=C(c1ccc(C2CCCCC2)cc1)c1ccccn1` turned out to be 44 to 45 °C

Kindly note the recorded melting point for `COc1ccc(Cn2c(=O)c3nccnc3n(CCCCBr)c2=O)cc1` , which is 117 to 119 °C

In plain terms, `CC1(C)CC(=O)Nc2cc3nc(-c4cccc(Cl)c4)[nH]c3cc21` has a documented melting point of 190 to 193 °C

Lab book: melting point of CN1CC(C(=O)CO)CC2c3cccc4[nH]cc(c34)CC21 (stereo unspecified) noted as 202 to 203 °C

Summary for this molecule, `COc1ccc2cc3c(Cl)nn(CCN(C)C)c3nc2c1` : melting point is 86 to 88 °C

Sure, the documented melting point for CC12CCC3c4ccc(O)cc4CCC3C1CC=C2c1cccnc1 (stereo unspecified) is 256 to 258 °C

Short answer for COc1cc2cc(C(=O)N3CC(CCl)c4c3cc(NC(=O)C(C)(C)c3ccccc3[N+](=O)[O-])c3ccccc43)[nH]c2c(OC)c1OC (stereo unspecified) : melting point was 139 to 143 °C

Note to self: melting point recorded for `CCOC(=O)COc1cccc(N)c1` was 162 to 164 °C

Reported melting point for `Cn1cc(S(N)(=O)=O)c(=O)c2ccccc21` was 230 to 231 °C

melting point for `Cc1cccc(-c2nc(CCOc3ccc(/C=C/CO)cc3)c(C)o2)c1` is 116 to 117 °C

According to the records, this molecule COC(=O)CCC(C)C1CCC2C3CCC4CCCCC4(C)C3CCC12C (stereo unspecified) displays melting point of 87 °C

The recorded melting point for `C[Si](C)(C)CCOCn1ccc2c(=O)[nH]ncc21` is 147 to 148 °C
